# System: P388 leukemia ip, CD2F1 mice, survival T/C
# EXPERIMENT NOTES: NCI In Vivo Anticancer Drug Screen. Data for tumor model P388 Leukemia (intraperitoneal) in CD2F1 (CDF1) mice
# STATED CONDITIONS: endpoint: median survival time; dose: 200.0 mg/kg/injection; schedule: Q04DX002 (ip); vehicle: saline; higher = longer survival
Toxic doses and inconclusive results are not listed.
Each item that follows carries a reported T/C.

O=C1OC(c2ccccc2)(c2ccccc2)c2cc3c(cc21)C(=O)OC3(c1ccccc1)c1ccccc1 : 98 % of control
CC(C)(C)c1cc(/C=C2/OC(=O)c3ccccc32)cc(C(C)(C)C)c1O : 100 % of control

Short answer for O=[N+]([O-])c1ccc2c(c1)SC1=NN3C(O)COC(OCc4ccccc4)C3N12 (stereo not given) : T/C was 100 % of control

Short answer for `O=[N+]([O-])Nc1ccccn1` : T/C was 110 % of control

Short answer for CCOP(=O)(OCC)C(C)NC(=O)C(C)NC(=O)c1cn(CC)c2nc(C)ccc2c1=O (stereo not given) : T/C was 97 % of control

----------
Each item that follows carries a reported T/C.
# System: P388 leukemia ip, CD2F1 mice, survival T/C
# EXPERIMENT NOTES: NCI In Vivo Anticancer Drug Screen. Data for tumor model P388 Leukemia (intraperitoneal) in CD2F1 (CDF1) mice
# STATED CONDITIONS: endpoint: median survival time; dose: 15.0 mg/kg/injection; schedule: Q01DX005 (ip); vehicle: Klucel (hydroxypropylcellulose) (HPC); higher = longer survival
# Method: The antitumor activity of compounds was measured in mice bearing transplantable tumors. Survival or tumor size were measured and the results are expressed as the measurement made in the treated group (T) divided by the measurement made in the vehicle treated control group (C). The tumor model used in this assay is P388 Leukemia (intraperitoneal) in CD2F1 (CDF1) mice
Inconclusive results and toxic doses are left out.

Please review the following examples before continuing.
CCOc1ccc(N=Nc2c(C)nn(C(N)=S)c2OCC)cc1 : 100 % of control
CC1(C)N=C(N)N=C(N)N1c1cc(C(F)(F)F)cc(C(F)(F)F)c1 : 94 % of control
Cc1cc2c(cc1C)NC1=C(N2)OC(c2cccc(O)c2)C1=O (configuration not stated) : 101 % of control
COc1cc2ccc1-c1cc(ccc1O)CC1c3cc4c(cc3CCN1C)Oc1c(OC)cc3c(c1O4)C(C2)N(C)CC3 (configuration not stated) : 99 % of control
Cc1ccc(S(=O)(=O)CN(CN2C(=O)CCC2=O)c2ccc(Cl)cc2)cc1 : 101 % of control
Clc1ccc2nc3ccccc3c(SCCCCCCSc3c4ccccc4nc4ccc(Cl)cc34)c2c1 : 97 % of control

Below: the item to evaluate.
Short answer for `c1ccc(-c2cc3nccnc3[nH]2)cc1` : T/C was 100 % of control

----------
# Test system: P388 leukemia ip, CD2F1 mice, survival T/C
# EXPERIMENT NOTES: NCI In Vivo Anticancer Drug Screen. Data for tumor model P388 Leukemia (intraperitoneal) in CD2F1 (CDF1) mice
# STATED CONDITIONS: endpoint: median survival time; dose: 50.0 mg/kg/injection; schedule: Q01DX009 (ip); vehicle: saline with Tween-80; higher = longer survival
Toxic doses and inconclusive results are not listed.
ATTRIBUTE MEASURED: T/C

Please review the following examples before continuing.
BrC(Br)(c1ccccc1)C1OCCO1 : 109 % of control
COc1cc(OC)c(NC(=O)Oc2cc(C)c(Br)c(C)c2)cc1Cl : 91 % of control
O=C1NNC(c2ccccc2)C1(Cl)Cl (stereo not drawn) : 99 % of control
Cc1ccc(S(=O)(=O)N(C)C=O)cc1 : 100 % of control
COc1cccc(N=Nc2c(N)nc(N)nc2N)c1 : 117 % of control
CCC1(CN(C)C)C(=O)N(C)C(=O)N(C2CCCCC2)C1=O (stereo not drawn) : 96 % of control

# lookup: `CN(C)P(=O)(N(C)C)N1CCCCCC1` on P388 leukemia ip, CD2F1 mice, survival T/C, T/C = 102 % of control

# lookup: `CC1(C)C=Cc2cc(O)ccc2O1` on P388 leukemia ip, CD2F1 mice, survival T/C, T/C = 90 % of control

# lookup: OC1(C#Cc2ccccc2)c2ccccc2C(O)(C#Cc2ccccc2)c2cnccc21 (stereo not drawn) on P388 leukemia ip, CD2F1 mice, survival T/C, T/C = 95 % of control

# lookup: CCC1CN2CCc3cc(OC)c(OC)cc3C2CC12CO2 (stereo not drawn) on P388 leukemia ip, CD2F1 mice, survival T/C, T/C = 96 % of control

# lookup: `CCC(O)(CC)/C(C)=N/O` on P388 leukemia ip, CD2F1 mice, survival T/C, T/C = 91 % of control

# lookup: `Nc1nc2[nH]c(=O)cnc2c(=O)[nH]1` on P388 leukemia ip, CD2F1 mice, survival T/C, T/C = 108 % of control

# lookup: `c1cc(-c2nnc3ccccn23)c2c(-c3nnc4ccccn34)cccc2c1` on P388 leukemia ip, CD2F1 mice, survival T/C, T/C = 100 % of control

----------
# Test system: P388 leukemia ip, CD2F1 mice, survival T/C
# EXPERIMENT NOTES: NCI In Vivo Anticancer Drug Screen. Data for tumor model P388 Leukemia (intraperitoneal) in CD2F1 (CDF1) mice
# STATED CONDITIONS: endpoint: median survival time; dose: 200.0 mg/kg/injection; schedule: Q01DX009 (ip); vehicle: suspension in saline; higher = longer survival
Toxic doses and inconclusive results are not listed.
ATTRIBUTE MEASURED: T/C

Please review the following examples before continuing.
O=C1CSC(=S)N1c1cccc(F)c1 : 100 % of control
CCCCCCCCCCCCCCCC(=O)NCCCCC(N)C(=O)O (stereo unspecified) : 96 % of control
Nc1nc2[nH]c(=O)cnc2c(=O)[nH]1 : 107 % of control
Cc1cc(NC(=S)SCc2ccc3c(c2)OCO3)ccc1Cl : 90 % of control
Cc1cc(NC(=S)SC(C)C)ccc1Br : 100 % of control

Below: the item to evaluate.
Short answer for `ON=C1CCCCCCC1` : T/C was 103 % of control

----------
# System: P388 leukemia ip, CD2F1 mice, survival T/C
# EXPERIMENT NOTES: NCI In Vivo Anticancer Drug Screen. Data for tumor model P388 Leukemia (intraperitoneal) in CD2F1 (CDF1) mice
# STATED CONDITIONS: endpoint: median survival time; dose: 60.0 mg/kg/injection; schedule: Q01DX005 (ip); vehicle: saline; higher = longer survival
Toxic doses and inconclusive results are not listed.
ATTRIBUTE MEASURED: T/C

Please review the following examples before continuing.
CN1CCO[Si](C)(C)C[Si](C)(C)OCC1 : 103 % of control
O=C1CCC(=O)N1CN1CCCCC1 : 93 % of control
Nc1c(S(=O)(=O)O)cc(Nc2ccc(S(=O)(=O)O)c(Nc3nc(Cl)nc(Cl)n3)c2)c2c1C(=O)c1ccccc1C2=O : 118 % of control

# lookup: `CCCCN(CCCC)c1cc(=O)nc2ccccn12` on P388 leukemia ip, CD2F1 mice, survival T/C, T/C = 101 % of control

# lookup: C[N+]12CCO[B-]1(c1ccccc1)OCC2 (stereo unspecified) on P388 leukemia ip, CD2F1 mice, survival T/C, T/C = 108 % of control

# lookup: `COC(=O)CNP(=O)(NCC(=O)OC)N(CCCl)CCCl` on P388 leukemia ip, CD2F1 mice, survival T/C, T/C = 115 % of control

----------
# Tested on: P388 leukemia ip, CD2F1 mice, survival T/C
# EXPERIMENT NOTES: NCI In Vivo Anticancer Drug Screen. Data for tumor model P388 Leukemia (intraperitoneal) in CD2F1 (CDF1) mice
# STATED CONDITIONS: endpoint: median survival time; dose: 50.0 mg/kg/injection; schedule: Q01DX009 (ip); vehicle: water; higher = longer survival
Inconclusive results and toxic doses are left out.
ATTRIBUTE MEASURED: T/C

Please review the following examples before continuing.
CN1C(=O)C2CC(O)C(SC3CC4C(=O)N(C)C(=O)C4CC3O)CC2C1=O (configuration not stated) : 100 % of control
CC(NC(=O)OCc1ccccc1)C(=O)NC1C(O)OC(CO)C(O)C1O (configuration not stated) : 93 % of control
CC(=O)Nc1cccn(C)c1=O : 112 % of control
CCOC(=O)C(C)Oc1ccc(Cl)cc1 (configuration not stated) : 102 % of control
CC(N)C(=O)NC1C(O)OC(CO)C(O)C1O (configuration not stated) : 104 % of control

Short answer for CC(=O)Oc1ccc(N2C(=O)C3C(C2=O)C2c4ccccc4C3C3CCCCN32)cc1 (configuration not stated) (tested in a mixture with another compound) : T/C was 102 % of control

Short answer for CP(=O)(NN)c1ccccc1 (configuration not stated) : T/C was 101 % of control

Every entry's value here was drawn from PubChem BioAssay AID330.
